Consider the following binders and their measured Neutralization (Ave IC50 ug/ml) readings.
Biological target: HA of influenza B virus ca B/Yamanashi/166/98 (yamagata) (influenza B virus B/Yamanashi/166/98)
Experiment: cell-based or functional assay
Number in µg/mL, nothing else.

Quick check: Neutralization (Ave IC50 ug/ml) of FBC-39 (antibody, V domains shown) VH: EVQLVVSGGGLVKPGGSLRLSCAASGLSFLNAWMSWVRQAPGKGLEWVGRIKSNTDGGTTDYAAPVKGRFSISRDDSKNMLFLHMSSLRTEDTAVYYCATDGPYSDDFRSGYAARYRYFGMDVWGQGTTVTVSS VL: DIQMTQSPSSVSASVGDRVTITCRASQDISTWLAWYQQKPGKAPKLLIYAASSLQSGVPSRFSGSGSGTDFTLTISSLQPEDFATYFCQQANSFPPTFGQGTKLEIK ?
0.039

Item: FBC-39 LSL (antibody, V domains shown) VH: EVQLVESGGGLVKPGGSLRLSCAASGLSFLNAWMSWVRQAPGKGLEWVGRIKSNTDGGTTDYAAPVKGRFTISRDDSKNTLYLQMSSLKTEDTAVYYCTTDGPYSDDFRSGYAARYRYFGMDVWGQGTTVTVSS VL: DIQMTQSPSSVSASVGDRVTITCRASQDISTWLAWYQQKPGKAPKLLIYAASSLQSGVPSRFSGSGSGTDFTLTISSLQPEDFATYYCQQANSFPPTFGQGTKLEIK
0.014

Item: FBD-94 (antibody, V domains shown) VH: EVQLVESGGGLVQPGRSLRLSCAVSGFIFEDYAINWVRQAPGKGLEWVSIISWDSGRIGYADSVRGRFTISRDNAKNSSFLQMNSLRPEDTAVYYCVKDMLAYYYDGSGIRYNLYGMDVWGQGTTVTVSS VL: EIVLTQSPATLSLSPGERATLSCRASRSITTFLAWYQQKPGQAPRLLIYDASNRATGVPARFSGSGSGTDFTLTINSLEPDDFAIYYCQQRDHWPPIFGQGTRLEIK
0.012

Item: FBC-39 FSL (antibody, V domains shown) VH: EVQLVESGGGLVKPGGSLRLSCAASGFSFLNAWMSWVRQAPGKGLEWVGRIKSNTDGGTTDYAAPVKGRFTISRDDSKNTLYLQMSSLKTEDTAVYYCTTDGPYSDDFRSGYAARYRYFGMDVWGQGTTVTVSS VL: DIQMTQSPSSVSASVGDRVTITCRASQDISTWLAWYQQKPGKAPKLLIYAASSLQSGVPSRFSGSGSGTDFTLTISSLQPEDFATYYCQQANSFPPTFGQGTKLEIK
0.009

Item: FBC-39 LTL (antibody, V domains shown) VH: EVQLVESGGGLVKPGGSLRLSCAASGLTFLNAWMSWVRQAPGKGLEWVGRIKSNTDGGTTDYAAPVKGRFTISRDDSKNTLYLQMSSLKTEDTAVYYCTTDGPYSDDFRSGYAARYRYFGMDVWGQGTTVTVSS VL: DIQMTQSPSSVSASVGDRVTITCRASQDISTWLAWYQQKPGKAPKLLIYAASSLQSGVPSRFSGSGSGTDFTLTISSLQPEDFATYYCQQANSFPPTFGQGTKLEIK
0.01

Item: FBC-39 FTL (antibody, V domains shown) VH: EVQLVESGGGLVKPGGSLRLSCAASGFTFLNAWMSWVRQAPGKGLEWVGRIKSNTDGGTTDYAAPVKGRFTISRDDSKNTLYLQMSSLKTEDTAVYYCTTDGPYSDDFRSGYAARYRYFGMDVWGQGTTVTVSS VL: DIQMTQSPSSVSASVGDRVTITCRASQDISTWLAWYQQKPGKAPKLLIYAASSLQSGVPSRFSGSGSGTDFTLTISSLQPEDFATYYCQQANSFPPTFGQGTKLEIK
0.007
